# TGT: PD-L1 (Homo sapiens, UniProt Q9NZQ7)
# Construct: determine if they can specifically dimerize the extracellular domains of PD-L1
# Sequence (Q9NZQ7 19-238 limits assumed): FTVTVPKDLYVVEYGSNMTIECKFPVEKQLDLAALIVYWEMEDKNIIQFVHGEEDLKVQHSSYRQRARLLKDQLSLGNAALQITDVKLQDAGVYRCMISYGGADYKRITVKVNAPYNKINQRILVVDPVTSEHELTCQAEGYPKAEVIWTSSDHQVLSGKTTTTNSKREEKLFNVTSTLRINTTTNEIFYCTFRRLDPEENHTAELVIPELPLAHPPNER
# Sequence (Q9NZQ7 19-238 limits assumed): as above
# MEASUREMENT_NOTES: PD-L1/PD-L1 dimerization biochemical protein-protein interaction assay (ALPHA)
# Assay type: binding
# MEASUREMENT_SETUP: compound-induced PD-L1 dimerization, head prints '1 nM' (0.5 nM His-tagged PD-L1 and 0.5 nM FLAG-tagged PD-L1), read-out: AC50 PDL1 Dimer Alpha 1 nM
MEASURED_QUANTITY: AC50 (nM)

Here is how some molecules turned out for AC50.
SMILES_NOTATION	RESULT_UNIT	AC50
CS(=O)(=O)c1cncc(COc2nc(O[C@H]3CCc4c(-c5cccc(-c6ccc(OCCNCCO)cc6)c5Cl)cccc43)c(Cl)cc2CNC[C@@H](O)CC(=O)O)c1	nM	20.8
Cc1c(COc2cc(OCc3cncc(C#N)c3)c(CNC[C@@H](O)CC(=O)O)cc2Cl)cccc1-c1cccc(COc2cc(OCc3cncc(C#N)c3)c(CNC[C@@H](O)CC(=O)O)cc2Cl)c1C	nM	370

[I] CS(=O)(=O)c1cncc(COc2nc(OCc3cccc(-c4cccc(-c5ccc(OCCNCCO)cc5)c4Cl)c3Cl)c(Cl)cc2CNC[C@@H](O)CC(=O)O)c1
[II] Cc1c(COc2cc(OCc3cncc(C#N)c3)c(CNC[C@@H](O)CC(=O)O)cc2Cl)cc(F)cc1-c1cccc(-c2ccc(OCCN3CC[C@@H](O)C3)cc2)c1C
Prompt line: Pick the one with the larger AC50: I vs II Could you answer with the label of the item you picked?
Response line: II
(II: 458 nM, I: 61.3 nM)

---

# TGT: PD-L1 (Homo sapiens)
# Construct: determine if they can specifically dimerize the extracellular domains of PD-L1
# MEASUREMENT_NOTES: PD-L1/PD-L1 dimerization biochemical protein-protein interaction assay (ALPHA)
# Type: binding
# MEASUREMENT_SETUP: compound-induced PD-L1 dimerization, head prints '1 nM' (0.5 nM His-tagged PD-L1 and 0.5 nM FLAG-tagged PD-L1), read-out: AC50 PDL1 Dimer Alpha 1 nM
MEASURED_QUANTITY: AC50 (nM)

                            smiles_notation  assay_result
0  COc1cc(OCc2cccc(-c3cccc(COc4cc(OC)c(CNC[C@@H](O)CC(=O)O)cc4Cl)c3C)c2C)c(Cl)cc1CNC[C@@H](O)CC(=O)O           188

[1] Cc1c(COc2cc(OCc3cncc(C#N)c3)c(CNC[C@@H](O)CC(=O)O)cc2Cl)cccc1-c1cccc(-c2ccc(CNC[C@@H](O)CC(=O)O)cc2)c1C
[2] COc1nc(O[C@H]2CCc3c(-c4cccc(-c5cnc(CN[C@@H]6CCC[C@@H]6O)c(OC)n5)c4Cl)cccc32)c(Cl)cc1CN[C@@](C)(CO)C(=O)O
Prompt line: Pick the one with the larger AC50: 1 vs 2 Could you answer with the label of the item you picked?
Response line: 1
(1: 154 nM, 2: 60.9 nM)

---

# TGT: PD-1/PD-L1 (Homo sapiens)
# MEASUREMENT_NOTES: PD-1/PD-L1 biochemical protein-protein interaction assay (ALPHA)
# Type: binding
# MEASUREMENT_SETUP: 0.3 nM His tagged PD-L1, 2.5 nM biotinylated Fc-PD-1, 60 minutes at 25° C., read-out: IC50 PD-L1-PD-1 Alpha IC50-mono PD-L1-fcP-D1
pIC50: −log10 of the molar value.
MEASURED_QUANTITY: pIC50

[A] COc1nc(O[C@H]2CCc3c(-c4cccc5c4CC[C@@H]5Oc4nc(OC)c(CNC[C@@H](O)CC(=O)O)cc4Br)cccc32)c(Br)cc1CNC[C@@H](O)CC(=O)O
[B] Cc1c(COc2cc(OCc3cncc(C#N)c3)c(CNC[C@@H](O)CC(=O)O)cc2Cl)cccc1-c1cccc(-c2ccc(CCN3CCCC3)cc2)c1C
Prompt line: Which value of pIC50 is smaller, the one for A or the one for B ? Could you answer with the label of the item you picked?
Response line: B
(B: 9.17, A: 10.00)

[I] Cc1c(COc2cc(OCc3cncc(C(=O)O)c3)c(CN[C@@](C)(CO)C(=O)O)cc2Cl)cccc1-c1cccc(-c2ccc(OCCN3CC[C@@H](O)C3)cc2)c1C
[II] COc1nc(OCc2cccc(-c3cccc(COc4nc(OC)c(CNC[C@@H](O)CC(=O)O)cc4C(F)(F)F)c3C)c2C)c(C(F)(F)F)cc1CNC[C@@H](O)CC(=O)O
[III] COc1nc(OCc2cccc(-c3cccc(COc4ccc(CNCCO)c(OC)n4)c3Cl)c2Cl)ccc1CNCCO
Prompt line: I would appreciate it if you could sort these 3 molecules by pIC50, starting from the smallest number. Please write the labels in the order that was asked for.
Response line: III, II, I
